# experiment description: Caco-2 permeability assay
# measurement setup: human, Caco-2
recorded endpoint: efflux ratio at 2 h, 10 μM
Reply: number alone, nothing else.

Ask: // returns reported efflux ratio at 2 h, 10 μM for input CN(C)C(=O)C(CCN1CCC(O)(c2ccc(Cl)cc2)CC1)(c1ccccc1)c1ccccc1 [loperamide]
Reply: 10

###

# experiment description: Caco-2 permeability assay
# measurement setup: human, Caco-2, A to B with verapamil % recovery, A to B, 100 μM verapamil
recorded endpoint: recovery at 2 h, 10 μM

Ask: Any idea what recovery at 2 h, 10 μM was measured for CN(C)C(=O)C(CCN1CCC(O)(c2ccc(Cl)cc2)CC1)(c1ccccc1)c1ccccc1 [loperamide] ?
Reply: 78%

All values here come from patent US20260258087A1.
